Reported EC50 values are given for each entry in this list.
# measurement target: mu-opioid receptor (Homo sapiens, UniProt P35372)
# Sequence (P35372 whole entry, species assumed): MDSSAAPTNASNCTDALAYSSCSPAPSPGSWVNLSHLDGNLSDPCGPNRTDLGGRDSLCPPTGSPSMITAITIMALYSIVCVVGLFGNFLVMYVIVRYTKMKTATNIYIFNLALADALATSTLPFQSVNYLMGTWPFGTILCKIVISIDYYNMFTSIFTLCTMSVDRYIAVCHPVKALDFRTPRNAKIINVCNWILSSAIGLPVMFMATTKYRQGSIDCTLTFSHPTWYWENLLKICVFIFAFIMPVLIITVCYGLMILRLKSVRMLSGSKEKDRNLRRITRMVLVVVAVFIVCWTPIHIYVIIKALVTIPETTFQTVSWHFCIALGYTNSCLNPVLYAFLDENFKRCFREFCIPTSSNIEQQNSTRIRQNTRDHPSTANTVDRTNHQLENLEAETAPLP
# method: biochemical
# test context: […]; class symbol combines EC50 and efficacy; read-out: GTP Activity

The examples below pair each entry with its known result.
> print(dat)
                                   compound  observed.property          result
1  CNC1=C(c2nc3ccccc3[nH]2)C(=O)C(C)(C(C)=O)N1c1cc(OC)cc(OC)c1 (stereo not shown)               EC50  100 to 1000 nM
2  COc1cc(OC)cc(N2C(N)=C(c3nc4ccccc4[nH]3)C(=O)C23CCCOC3)c1 (stereo not shown)               EC50  100 to 1000 nM
3  CNC1=C(c2nc3ccccc3[nH]2)C(=O)[C@](C)(CCNC(C)=O)N1c1cc(OC)cc(OC)c1               EC50        < 100 nM
4  COc1cc(OC)cc(N2C(N)=C(c3nc4ccccc4[nH]3)C(=O)C23CN(C(C)=O)C3)c1               EC50  100 to 1000 nM
5  COc1cc(OC)cc(N2C(N)=C(c3nc4ccccc4[nH]3)C(=O)C2CCN(C)C(C)=O)c1 (stereo not shown)               EC50  100 to 1000 nM

Reported EC50 ( CCC(=O)N1CC2(C1)C(=O)C(c1nc3ccccc3[nH]1)=C(N)N2c1cc(OC)cc(OC)c1 ) = 1000 to 10000 nM

The compound CNC(=O)CC1C(=O)C(c2nc3ccccc3[nH]2)=C(N)N1c1cc(OC)cc(OC)c1 (stereo not shown) showed EC50 equal to 1000 to 10000 nM

====

# measurement target: mu-opioid receptor (Homo sapiens)
# method: biochemical
# test context: class symbols; read-out: GTP Activity
observed property: EC50

# count of solved cases: 4
> print(dat)
                                   molecule  observed.property            result
1  COc1cc(OC)cc(N2CC(=O)C(c3nc4c(C)cccc4[nH]3)=C2N)c1 [compound 5]               EC50  1000 to 10000 nM
2  CNC1=C(c2nc3ccccc3[nH]2)C(=O)C(C)(O)N1c1cc(OC)cc(OC)c1 (centres unmarked) [compound 114]               EC50    100 to 1000 nM
3  CNC1=C(c2nc3ccccc3[nH]2)C(=O)C(C)(OC)N1c1cc(OC)cc(OC)c1 (centres unmarked) [compound 120]               EC50    100 to 1000 nM
4  COc1cc(OC)cc(N2C(N)=C(c3nc4ccccc4[nH]3)C(=O)C23CNC3)c1 [compound 189]               EC50  1000 to 10000 nM

EC50 reported for this molecule COc1cc(OC)cc(N2C(N)=C(c3nc4ccccc4[nH]3)C(=O)C2C)c1 (centres unmarked) [compound 1] : 100 to 1000 nM

Notebook: COc1cc(OC)cc(N2C(N)=C(c3nc4ccccc4[nH]3)C(=O)C23CN(C)C3)c1 [compound 190] , EC50 read as 1000 to 10000 nM

EC50 for CCNC1=C(c2nc3ccccc3[nH]2)C(=O)C(CC)N1c1cc(OC)cc(OC)c1 (centres unmarked) [compound 154] is 100 to 1000 nM

The molecule listed as COc1cc(OC)cc(N2CC(=O)C(c3nc4c(F)cccc4[nH]3)=C2N)c1 [compound 11] shows EC50 equal to 1000 to 10000 nM
